Data provenance: PubChem BioAssay (NCI)

Test system: MOLT-4 leukemia
TEST SUMMARY: NCI-60 one-dose screen, 48 h
PROTOCOL CONDITIONS: 10 µM unless noted
Procedure: Growth inhibition of the MOLT-4 human tumor cell line is measured as a screen for anti-cancer activity. Cells are grown in 96 well plates and exposed to the test compound for 48 hours. Compounds are tested at a single concentration, which is 10^-5 M for most compounds. The reported endpoint is percent growth (GI% or GIPRCNT), where numbers from 0 - 100% represent growth inhibition, and numbers from -100% - 0 represent cell death. For example, a value of 40 represents 60% growth inhibition. […]
The panel holds about 83,000 compounds, 20% with a hit somewhere; the sample as a whole holds those more often. The source made the active and inactive calls. Rule for the calls: active = growth percent below 10; inactive = the rest.
Labels: 1.0 for active, 0.0 for inactive

{"MOLECULE": "Cl.Fc1c[c-]c(-c2ccccn2)c(F)c1.[Pt].c1ccc([PH+](c2ccccc2)c2ccccc2[PH+](c2ccccc2)c2ccccc2)cc1", "CATEGORY LABEL": 1.0}
{"MOLECULE": "O=C(Oc1ccc[nH]c1=O)c1cc([N+](=O)[O-])cc([N+](=O)[O-])c1", "CATEGORY LABEL": 0.0}
{"MOLECULE": "CN(C)CCC(O)(Cc1ccccc1)c1ccccc1 (stereo not given)", "CATEGORY LABEL": 0.0}
{"MOLECULE": "N=C(N)c1ccc(-c2ccc(-c3ccc(Cl)c(Cl)c3)o2)nc1", "CATEGORY LABEL": 1.0}
{"MOLECULE": "CCOC(=O)c1c(C)[nH]c(C(=O)CCC(=O)OC)c1C", "CATEGORY LABEL": 0.0}
{"MOLECULE": "Cc1ccc(C)c2c1C(=O)OC2=O", "CATEGORY LABEL": 1.0}
{"MOLECULE": "Cc1ccc(/C(=N\\N=C(N)N)c2ccccc2)cc1", "CATEGORY LABEL": 0.0}
{"MOLECULE": "CCCCS(=O)(=O)Oc1ccc(-c2nc(C)c(C(=O)OCC)s2)cc1C=O", "CATEGORY LABEL": 0.0}
{"MOLECULE": "Cc1ccc2c(n1)C(=O)C(Oc1ccc(F)cc1)=CC2=O", "CATEGORY LABEL": 0.0}
{"MOLECULE": "C=C1C(=O)O[C@H]2[C@H]1CC/C(COC(=O)/C=C\\C(=O)NCc1ccc(Cn3c(=O)sn(-c4ccc(OC)cc4)c3=O)cc1)=C\\CC[C@@]1(C)O[C@@H]21", "CATEGORY LABEL": 1.0}

====

Test system: SR leukemia
TEST SUMMARY: NCI-60 one-dose screen, 48 h (100 = growth as untreated, 0 = no growth, -100 = all killed)
PROTOCOL CONDITIONS: 10 µM unless noted
Description: Growth inhibition of the SR human tumor cell line is measured as a screen for anti-cancer activity. Cells are grown in 96 well plates and exposed to the test compound for 48 hours. Compounds are tested at a single concentration, which is 10^-5 M for most compounds. The reported endpoint is percent growth (GI% or GIPRCNT), where numbers from 0 - 100% represent growth inhibition, and numbers from -100% - 0 represent cell death. For example, a value of 40 represents 60% growth inhibition. […]
This is part of a sample that, as a whole, favours compounds with a hit. Of some 83,000 tested, about 20% had one in any assay. Active and inactive are the calls of the source. How the source made its calls: active means growth percent below 10; inactive means the rest.
// reported growth for each item listed
MEASURED METRIC: growth

{"MOLECULE": "COc1cc2c(=O)n(CCCn3ccnc3)c3c4cc5c(cc4ccc3c2cc1OC)OCO5", "MEASURED METRIC": "growth", "VALUE MEASURED": "10.5% (inactive)"}
{"MOLECULE": "CCOC(=O)c1c2c(c(C)n1C)-c1nn(Cc3ccc(OC)cc3)cc1CC2", "MEASURED METRIC": "growth", "VALUE MEASURED": "71.2% (inactive)"}
{"MOLECULE": "C=CCOc1cccc(/C=C2\\SC(=Nc3ccc(O)cc3)NC2=O)c1", "MEASURED METRIC": "growth", "VALUE MEASURED": "17.1% (inactive)"}
{"MOLECULE": "COc1ccc(/C(C)=C(\\c2ccc(Cl)cc2)c2ccc(OCCN3CCCCCC3)cc2)cc1F", "MEASURED METRIC": "growth", "VALUE MEASURED": "-12.6% (active)"}
{"MOLECULE": "O=[N+]([O-])c1ccccc1C(O)Cc1ccc2ccccc2n1 (stereo not given)", "MEASURED METRIC": "growth", "VALUE MEASURED": "95.6% (inactive)"}
{"MOLECULE": "CC[C@]1(O)C[C@H]2CN(CCc3c([nH]c4ccccc34)[C@@](C(=O)OC)(c3cc4c(cc3OC)N(C=O)[C@H]3[C@@](O)(C(=O)OC)[C@H](OC(C)=O)[C@]5(CC)C=CCN6CC[C@]43[C@@H]65)C2)C1", "MEASURED METRIC": "growth", "VALUE MEASURED": "9.82% (active)"}
{"MOLECULE": "C=C(Cl)COC(=O)C(C)(C)O", "MEASURED METRIC": "growth", "VALUE MEASURED": "91.2% (inactive)"}
{"MOLECULE": "O=C1NC(=S)S/C1=C\\N1N=C(c2ccc(Cl)cc2)CC1c1ccc(F)cc1 (stereo not given)", "MEASURED METRIC": "growth", "VALUE MEASURED": "46.9% (inactive)"}
{"MOLECULE": "CN(C)CN1CCN(c2ccc3nc(-c4ccc5nc(-c6ccc(C(F)(F)F)cc6)[nH]c5c4)[nH]c3c2)CC1", "MEASURED METRIC": "growth", "VALUE MEASURED": "17.7% (inactive)"}
{"MOLECULE": "O=C1NCC(=O)N(Cc2ccco2)[C@H]1Cc1ccccc1", "MEASURED METRIC": "growth", "VALUE MEASURED": "92.6% (inactive)"}
{"MOLECULE": "Cc1nc(Nc2ccc(NC(=S)Nc3ccccc3)cc2)c2ccccc2n1", "MEASURED METRIC": "growth", "VALUE MEASURED": "80.5% (inactive)"}
{"MOLECULE": "C[C@@H]1CC[C@@H]2[C@@H]1[C@H](OC(=O)/C=C/c1ccccc1)[C@]1(CCCOCCOCCOCCOC(=O)CCCC[C@@H]3SC[C@@H]4NC(=O)N[C@@H]43)C[C@@H](OC(=O)CO)[C@@]2(C)O1", "MEASURED METRIC": "growth", "VALUE MEASURED": "88.3% (inactive)"}
{"MOLECULE": "CCCCN1CCN(c2ccc3nc(-c4ccc5nc(-c6ccc(OCC)c(OCC)c6)[nH]c5c4)[nH]c3c2)CC1", "MEASURED METRIC": "growth", "VALUE MEASURED": "14.3% (inactive)"}
{"MOLECULE": "O=C(/C=C/C12c3ccccc3C(c3ccccc31)C1C(=O)N(c3ccccc3)C(=O)C12)c1ccc(Cl)cc1 (stereo not given)", "MEASURED METRIC": "growth", "VALUE MEASURED": "16.9% (inactive)"}
{"MOLECULE": "O=C1Nc2ccccc2SC1C1SC(=S)N(Cc2ccccc2)C1=O (stereo not given)", "MEASURED METRIC": "growth", "VALUE MEASURED": "-12.1% (active)"}
{"MOLECULE": "COc1ccc(OC)c(/C=C2\\COc3ccc(O)c(O)c3C2=O)c1", "MEASURED METRIC": "growth", "VALUE MEASURED": "7.03% (active)"}
{"MOLECULE": "Cc1[nH]c(-c2nc3ccccc3[nH]2)c(C)c1C(=O)N1CCOCC1", "MEASURED METRIC": "growth", "VALUE MEASURED": "98.6% (inactive)"}
{"MOLECULE": "CCNCCNc1cc(-c2cccc(C(F)(F)F)c2)c(C#N)c2nc3ccccc3n12", "MEASURED METRIC": "growth", "VALUE MEASURED": "-37.5% (active)"}
{"MOLECULE": "COc1ccc(-n2nnc(C(=O)NCCc3c[nH]c4ccc(F)cc34)c2C)cc1", "MEASURED METRIC": "growth", "VALUE MEASURED": "82.1% (inactive)"}
{"MOLECULE": "O=C1CC(c2ccc3c(c2)OCO3)Nc2cc3c(cc21)OCO3 (stereo not given)", "MEASURED METRIC": "growth", "VALUE MEASURED": "7.67% (active)"}
